assay target: NS3h 2a (JFH1)
assay text: NS3 helicase inhibitors across HCV genotypes, late-stage follow-up, selectivity assay for HCV NS3 helicase inhibitor project, biochemical, real-time fluorescence, genotypes 2a and 1b, Set 2 (AID 504419)
run conditions: Recombinant NS3 helicase, real-time fluorescence unwinding
Activity calls are given as the source filed them. The rule behind the calls is not given here.
Answer with one of the outcomes given here: active, inactive

These solved cases illustrate the format of a correct answer.
{"columns": ["compound", "assay target", "class label"],
 "data": [
  ["O=c1c2c(-c3ccco3)csc2nc(SCc2cn3ncccc3n2)n1-c1ccccc1", "NS3h 2a (JFH1)", "inactive"],
  ["Cc1ccc2nc(-c3ccc4nc(-c5ccc6nc(-c7ccc8nc(-c9ccc(N)cc9)sc8c7)sc6c5)sc4c3)sc2c1S(=O)(=O)O", "NS3h 2a (JFH1)", "active"]
]}

Outcome? "Cc1ccc2nc(-c3ccc4nc(-c5ccc(NC(=O)c6ccc(Cl)cc6)cc5)sc4c3)sc2c1S(=O)(=O)O"
active

Outcome? "COc1cc(OC)c2ccc(=O)oc2c1[C@H](CCN1CCN(c2ccccc2)CC1)c1ccc(N(C)C)cc1"
inactive

Outcome? CCOc1ccc(C2C(C(=O)c3ccc(C)o3)=C(O)C(=O)N2Cc2ccco2)cc1 (stereo unspecified)
inactive
